Reported values: Ki for Calpain I from human erythrocytes (Homo sapiens), one per item.
// return numeric value only (unit: µM, not printed)

INPUT: Could you tell me which Ki is on file for CCNC(=O)C(=O)[C@H](CC)NC(=O)[C@H](CC(C)C)NC(=O)OCc1ccccc1 [Z--Leu--Abu--CONH--Et, Z-Leu-Abu-CONH-Et] ?
OUTPUT: 0.5

INPUT: Could you tell me which Ki is on file for CCCNC(=O)C(=O)C(Cc1ccccc1)NC(=O)C(CC(C)C)NC(=O)OCc1ccccc1 (stereo not drawn) [Z--Leu--Phe--CONH--nPr, Z-Leu-Phe-CONH-nPr] ?
OUTPUT: 15

###

# TARGET SYSTEM: Calpain II from rabbit muscle
# ASSAY PROTOCOL: Inhibition of calpain II (Suc-Leu-Tyr-AMC hydrolysis)
# Excerpt: Materials and Methods. HEPES, heparin, and A23187 were obtained from Calbiochem. Suc-Leu-Tyr-AMC and chromogenic substrates were obtained from Sigma. Calpain I was purified from human erythrocytes according to the method of Kitahara (Kitahara et al., J. Biochem. 95, 1759-1766) omitting the Blue-Sepharose step. Calpain II from rabbit muscle and cathepsin B were purchased from Sigma. Papain was purchased from Calbiochem. Assay of Inhibitory Potency. […]
What pKi was measured for each of the following?
pKi is defined as minus the log10 of a concentration measured in mol/L.

INPUT: Could you tell me which pKi is on file for CCC(NC(=O)C(CC(C)C)NC(=O)OCc1ccccc1)C(=O)C(=O)NCc1ccccc1 (stereo not drawn) [Z--Leu--Abu--CONH--Bzl, Z-Leu-Abu-CONH-Bzl] ?
OUTPUT: 6.46

INPUT: Could you tell me which pKi is on file for CC[C@H](NC(=O)[C@H](CC(C)C)NC(=O)OCc1ccccc1)C(=O)C(=O)NCCc1ccccc1 [Z--Leu--Abu--CONH--(CH2)2 --Ph, Z-Leu-Abu-CONH-(CH2)2 Ph] ?
OUTPUT: 7.66

INPUT: Could you tell me which pKi is on file for CCC(NC(=O)C(CC(C)C)NC(=O)OCc1ccccc1)C(=O)C(=O)NCCO (stereo not drawn) [Z--Leu--Abu--CONH--(CH2)2 OH, Z-Leu-Abu-CONH-(CH2)2 OH] ?
OUTPUT: 7.11

###

What t 1/2 liver was measured for each of the following?
# ASSAY PROTOCOL: Half-life in liver
# Type: in vitro ADME
# MEASUREMENT CONDITIONS: unit inferred, unit assumed

INPUT: Could you tell me which t 1/2 liver is on file for CCNC(=O)C(=O)[C@H](CC)NC(=O)[C@H](CC(C)C)NC(=O)OCc1ccccc1 [Z--Leu--Abu--CONH--Et, Z-Leu-Abu-CONH-Et] ?
OUTPUT: > 1 h

INPUT: Could you tell me which t 1/2 liver is on file for CCC(NC(=O)C(CC(C)C)NC(=O)OCc1ccccc1)C(=O)C(=O)O (stereo not drawn) [Z--Leu--Abu--COOH] ?
OUTPUT: > 1 h

INPUT: Could you tell me which t 1/2 liver is on file for CCCNC(=O)C(=O)C(Cc1ccccc1)NC(=O)C(CC(C)C)NC(=O)OCc1ccccc1 (stereo not drawn) [Z--Leu--Phe--CONH--nPr, Z-Leu-Phe-CONH-nPr] ?
OUTPUT: > 1 h

###

# TARGET SYSTEM: chymotrypsin (Bos taurus, UniProt P00766, DEL14-15/DEL147-148)
# ASSAY PROTOCOL: Inhibition of chymotrypsin (Suc-Val-Pro-Phe-NA hydrolysis)
What pKi was measured for each of the following?
pKi is defined as minus the log10 of a concentration measured in mol/L.

INPUT: Could you tell me which pKi is on file for CCCCNC(=O)C(=O)C(Cc1ccccc1)NC(=O)C(CC(C)C)NC(=O)OCc1ccccc1 (stereo not drawn) ?
OUTPUT: 5.10

INPUT: Could you tell me which pKi is on file for `CC(C)CNC(=O)C(=O)[C@H](Cc1ccccc1)NC(=O)[C@H](CC(C)C)NC(=O)OCc1ccccc1` ?
OUTPUT: 4.62

INPUT: Could you tell me which pKi is on file for `CCNC(=O)C(=O)[C@H](Cc1ccccc1)NC(=O)[C@H](CC(C)C)NC(=O)OCc1ccccc1` ?
OUTPUT: 4.14

INPUT: Could you tell me which pKi is on file for CCCNC(=O)C(=O)C(Cc1ccccc1)NC(=O)C(CC(C)C)NC(=O)OCc1ccccc1 (stereo not drawn) ?
OUTPUT: 4.74

###

# ASSAY PROTOCOL: Half-life in plasma
# Assay type: in vitro ADME
# MEASUREMENT CONDITIONS: unit inferred, unit assumed
What t 1/2 plasma was measured for each of the following?

INPUT: Could you tell me which t 1/2 plasma is on file for CC(C)CC(NC(=O)OCc1ccccc1)C(=O)NC(Cc1ccccc1)C(=O)C(=O)OCc1ccccc1 (stereo not shown) ?
OUTPUT: 1.9 min

INPUT: Could you tell me which t 1/2 plasma is on file for `CCCCOC(=O)C(=O)[C@H](Cc1ccccc1)NC(=O)[C@H](CC(C)C)NC(=O)OCc1ccccc1` ?
OUTPUT: 7.7 min

INPUT: Could you tell me which t 1/2 plasma is on file for CCOC(=O)C(=O)C(CCSC)NC(=O)C(CC(C)C)NC(=O)OCc1ccccc1 (stereo not shown) ?
OUTPUT: 8 min

INPUT: Could you tell me which t 1/2 plasma is on file for `CCOC(=O)C(=O)[C@H](CC)NC(=O)[C@H](CC(C)C)NC(=O)OCc1ccccc1` ?
OUTPUT: 2.8 min

INPUT: Could you tell me which t 1/2 plasma is on file for CCOC(=O)C(=O)C(CC)NC(=O)C(CC(C)C)NC(=O)C(CC(C)C)NS(=O)(=O)c1ccc2ccccc2c1 (stereo not shown) ?
OUTPUT: > 60 min

INPUT: Could you tell me which t 1/2 plasma is on file for CCC(NC(=O)C(CC(C)C)NC(=O)OCc1ccccc1)C(=O)C(=O)NCc1ccccc1 (stereo not shown) ?
OUTPUT: > 60 min

INPUT: Could you tell me which t 1/2 plasma is on file for CCC(NC(=O)C(CC(C)C)NC(=O)OCc1ccccc1)C(=O)C(=O)O (stereo not shown) ?
OUTPUT: > 60 min

INPUT: Could you tell me which t 1/2 plasma is on file for CCCNC(=O)C(=O)C(Cc1ccccc1)NC(=O)C(CC(C)C)NC(=O)OCc1ccccc1 (stereo not shown) ?
OUTPUT: > 60 min

INPUT: Could you tell me which t 1/2 plasma is on file for `CC(C)C[C@H](NC(=O)OCc1ccccc1)C(=O)N[C@@H](Cc1ccccc1)C(=O)C(=O)NCCc1ccccc1` ?
OUTPUT: > 60 min

INPUT: Could you tell me which t 1/2 plasma is on file for CC(C)CC(NC(=O)OCc1ccccc1)C(=O)NC(Cc1ccccc1)C(=O)C(=O)O (stereo not shown) ?
OUTPUT: > 60 min

INPUT: Could you tell me which t 1/2 plasma is on file for CCOC(=O)C(=O)C(Cc1ccccc1)NC(=O)C(CC(C)C)NC(=O)OCc1ccccc1 (stereo not shown) ?
OUTPUT: 7.8 min

INPUT: Could you tell me which t 1/2 plasma is on file for `CCNC(=O)C(=O)[C@H](Cc1ccccc1)NC(=O)[C@H](CC(C)C)NC(=O)OCc1ccccc1` ?
OUTPUT: > 60 min

INPUT: Could you tell me which t 1/2 plasma is on file for `CCNC(=O)C(=O)[C@H](CC)NC(=O)[C@H](CC(C)C)NC(=O)OCc1ccccc1` ?
OUTPUT: > 60 min

###

What pKi was measured for each of the following?
pKi is defined as minus the log10 of a concentration measured in mol/L.

INPUT: What pKi appears in the records for this compound with porcine pancreatic elastase (PPE) (Sus scrofa)? CCC(NC(=O)C(CC(C)C)NC(=O)OCc1ccccc1)C(=O)C(=O)NCC(C)C (centres unmarked)
Sequence (P00772 27-266): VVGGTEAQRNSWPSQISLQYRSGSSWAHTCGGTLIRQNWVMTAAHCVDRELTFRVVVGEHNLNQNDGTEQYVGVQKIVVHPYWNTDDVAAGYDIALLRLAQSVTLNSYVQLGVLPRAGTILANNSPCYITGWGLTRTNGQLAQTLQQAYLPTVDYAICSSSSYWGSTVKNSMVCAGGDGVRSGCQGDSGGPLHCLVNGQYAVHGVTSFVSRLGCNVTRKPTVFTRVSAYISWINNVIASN
OUTPUT: 4.40

INPUT: What pKi appears in the records for this compound with porcine pancreatic elastase (PPE) (Sus scrofa)? `CCCNC(=O)C(=O)[C@H](CC)NC(=O)[C@H](CC(C)C)NC(=O)OCc1ccccc1`
OUTPUT: 5.70

###

# TARGET SYSTEM: chymotrypsin (Bos taurus, UniProt P00766, DEL14-15/DEL147-148)
# ASSAY PROTOCOL: Inhibition of chymotrypsin (Suc-Val-Pro-Phe-NA hydrolysis)
MEASUREMENT LABEL: Ki

INPUT: Could you tell me which Ki is on file for CCCCNC(=O)C(=O)C(CC)NC(=O)C(CC(C)C)NC(=O)OCc1ccccc1 (stereo not drawn) [Z--Leu--Abu--CONH--nBu, Z-Leu-Abu-CONH-nBu] ?
OUTPUT: > 300 µM

INPUT: Could you tell me which Ki is on file for CCC(NC(=O)C(CC(C)C)NC(=O)OCc1ccccc1)C(=O)C(=O)NCC(C)C (stereo not drawn) [Z--Leu--Abu--CONH--iBu, Z-Leu-Abu-CONH-iBu] ?
OUTPUT: > 300 µM

INPUT: Could you tell me which Ki is on file for CCC(NC(=O)C(CC(C)C)NC(=O)OCc1ccccc1)C(=O)C(=O)NCc1ccccc1 (stereo not drawn) [Z--Leu--Abu--CONH--Bzl, Z-Leu-Abu-CONH-Bzl] ?
OUTPUT: > 300 µM

INPUT: Could you tell me which Ki is on file for CCCNC(=O)C(=O)[C@H](CC)NC(=O)[C@H](CC(C)C)NC(=O)OCc1ccccc1 [Z--Leu--Abu--CONH--nPr, Z-Leu-Abu-CONH-nPr] ?
OUTPUT: > 300 µM

INPUT: Could you tell me which Ki is on file for CCNC(=O)C(=O)[C@H](CC)NC(=O)[C@H](CC(C)C)NC(=O)OCc1ccccc1 [Z--Leu--Abu--CONH--Et, Z-Leu-Abu-CONH-Et] ?
OUTPUT: > 150 µM

Where do the numbers come from? From patent US5610297A.
